- assay: Inhibition of recombinant human IL2R/IL2-induced mouse 32D-beta cell proliferation preincubated for 30 mins with protein followed by cell addition measured after 2.5 days by Alamar blue reduction assay
- condition.label: Homo sapiens; read-out: IC50
pIC50: −log10 of the molar value.
Decision: pIC50 compared against 5; not below it gives T, below it gives F.

Q: Dear colleague, could you confirm whether "CCCOc1ccc(NC(=O)CCCCCCCSc2nnc(Cc3nn(C)c(=O)c4ccccc34)n2C)cc1" has pIC50 at or above 5?
Ans: T

Q: Confirm if pIC50 reported for the compound "Cn1c(Cc2nn(C)c(=O)c3ccccc23)nnc1SCCCCCCCC(=O)Nc1ccc(F)cc1F" is 5 or above.
Ans: T

Q: Does the compound "CCOC(=O)c1cccc(NC(=O)CCCCCCCSc2nnc(Cc3nn(C)c(=O)c4ccccc34)n2C)c1" have recorded pIC50 that is 5 or more?
Ans: T

Q: Could you please find out whether "Cn1c(Cc2nn(C)c(=O)c3ccccc23)nnc1SCCCCCCCC(=O)Nc1ccc(Cl)cc1Cl" has pIC50 that meets 5 or exceeds it?
Ans: T

Q: # check: pIC50 of "CCOC(=O)c1ccccc1NC(=O)CSc1nnc(Cc2nn(C)c(=O)c3ccccc23)n1C" is greater than or equal to 5
Ans: F

Q: Reported pIC50 reaches at least 5 for "Cn1c(Cc2nn(C)c(=O)c3ccccc23)nnc1SCCCCCCCCCCCCCCCC(=O)Nc1ccc(Cl)cc1Cl" ?
Ans: T

Q: hey, is pIC50 for this one >= 5? "CCCOc1ccc(NC(=O)CSc2nnc(Cc3nn(C)c(=O)c4ccccc34)n2C)cc1"
Ans: F

Q: Has "Cn1c(Cc2nn(C)c(=O)c3ccccc23)nnc1SCCCCCCCCCCC(=O)Nc1ccc(Cl)cc1Cl" a recorded pIC50 greater than or equal to 5?
Ans: T

====

- subject.of.test: IL15-IL15 receptor (Homo sapiens, UniProt P40933)
- Sequence (P40933 whole entry): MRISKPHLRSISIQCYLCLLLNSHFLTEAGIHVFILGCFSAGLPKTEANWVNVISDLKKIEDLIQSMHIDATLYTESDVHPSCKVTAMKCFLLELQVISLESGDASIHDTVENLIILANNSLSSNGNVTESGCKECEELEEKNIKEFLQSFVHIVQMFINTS
- Sequence (Q13261 whole entry, further chain): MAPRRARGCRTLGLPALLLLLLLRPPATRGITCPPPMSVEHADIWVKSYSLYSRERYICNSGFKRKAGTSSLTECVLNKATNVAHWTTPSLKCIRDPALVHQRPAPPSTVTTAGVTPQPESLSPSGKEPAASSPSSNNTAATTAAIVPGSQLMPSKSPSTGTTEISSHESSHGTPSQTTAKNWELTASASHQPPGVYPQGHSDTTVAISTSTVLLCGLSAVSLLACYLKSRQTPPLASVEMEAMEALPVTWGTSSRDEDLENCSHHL
- assay: Inhibition of IL15R/IL15 interaction in human NK92 cells assessed as reduction of IL15-induced STAT5 phosphorylation preincubated for 30 mins with IL15 followed by cell addition measured after 1 hr by AlphaScreen assay
- Format: cell-based
pIC50: −log10 of the molar value.
Answer 0 (no) if pIC50 is under 7, and 1 (yes) if it is 7 or more.

Q: Identify whether the reported pIC50 of the following molecule is 7 or greater: "Cn1c(Cc2nn(C)c(=O)c3ccccc23)nnc1SCC(=O)Nc1ccc(Cl)cc1Cl"
Ans: 0 (no)

Q: Exam item: decide whether the reported pIC50 for "COc1ccc(NC(=O)CCCCCCCSc2nnc(Cc3nn(C)c(=O)c4ccccc34)n2C)cc1" is at least 7.
Ans: 0 (no)

Q: Determine whether this molecule has pIC50 no lower than 7: "CCOC(=O)c1cccc(NC(=O)CCCCCCCSc2nnc(Cc3nn(C)c(=O)c4ccccc34)n2C)c1"
Ans: 1 (yes)

Q: Please tell me: is the molecule "Cn1c(Cc2nn(C)c(=O)c3ccccc23)nnc1SCC(=O)NC12CC3CC(CC(C3)C1)C2" at or over 7 in terms of pIC50?
Ans: 0 (no)

Q: Does "COc1ccc(NC(=O)CCCCCCCSc2nnc(Cc3nn(C)c(=O)c4ccccc34)n2C)c(OC)c1" have a reported pIC50 of at least 7?
Ans: 0 (no)

Q: Check if pIC50 >= 7 (inclusive). Item: "COc1ccc(NC(=O)CCCCCCCSc2nnc(Cc3nn(C)c(=O)c4ccccc34)n2C)c(O)c1"
Ans: 0 (no)

Q: State whether the measured pIC50 reaches 7, counting equality as reaching it, for "Cn1c(Cc2nn(C)c(=O)c3ccccc23)nnc1SCCCCCCCC(=O)NC12CC3CC(CC(C3)C1)C2"
Ans: 0 (no)

Q: In plain terms: is recorded pIC50 at least 7 for "CCCOc1ccc(NC(=O)CCCCCCCSc2nnc(Cc3nn(C)c(=O)c4ccccc34)n2C)cc1" ?
Ans: 1 (yes)

Q: Dear colleague, could you confirm whether "CC(C)COc1ccc(NC(=O)CCCCCCCSc2nnc(Cc3nn(C)c(=O)c4ccccc34)n2C)cc1" has pIC50 at or above 7?
Ans: 1 (yes)

====

Provide the recorded IC50 for the entries that follow.
- assay: Inhibition of IL2R/IL2 interaction in human NK92 cells assessed as reduction IL2-induced STAT5 phosphorylation preincubated for 30 mins with IL2 followed by cell addition measured after 1 hr by AlphaScreen assay
- Assay type: cell-based
Form entry: value (nM) — number only.

Q: What value of IC50 has been recorded for this entry: "COc1ccc(NC(=O)CCCCCCCSc2nnc(Cc3nn(C)c(=O)c4ccccc34)n2C)c(O)c1"
Ans: 226

Q: Bench note: what IC50 did "Cn1c(Cc2nn(C)c(=O)c3ccccc23)nnc1SCCCCCCCC(=O)NC12CC3CC(CC(C3)C1)C2" show?
Ans: 152

Q: IC50 lookup needed for "Cn1c(Cc2nn(C)c(=O)c3ccccc23)nnc1SCCCCCCCC(=O)Nc1ccc(N=[N+]=[N-])cc1" , thanks.
Ans: 73

Q: Consider the compound "CC(C)Oc1ccc(NC(=O)CCCCCCCSc2nnc(Cc3nn(C)c(=O)c4ccccc34)n2C)cc1" and give its measured IC50.
Ans: 89

Q: Requested read-out: IC50. Entry: "CCCOc1ccc(NC(=O)CCCCCCCSc2nnc(Cc3nn(C)c(=O)c4ccccc34)n2C)cc1"
Ans: 53

Q: Return reported IC50; argument: "Cn1c(Cc2nn(C)c(=O)c3ccccc23)nnc1SCCCCCCCCCCC(=O)NC12CC3CC(CC(C3)C1)C2"
Ans: 59

Q: Quick one: IC50 of "CCOC(=O)c1cccc(NC(=O)CCCCCCCSc2nnc(Cc3nn(C)c(=O)c4ccccc34)n2C)c1" ?
Ans: 43

Q: IC50 for "Cn1c(Cc2nn(C)c(=O)c3ccccc23)nnc1SCC(=O)Nc1ccc(Cl)cc1Cl" ?
Ans: 14100

Q: Name the recorded IC50 for "CC(C)COc1ccc(NC(=O)CCCCCCCSc2nnc(Cc3nn(C)c(=O)c4ccccc34)n2C)cc1" .
Ans: 58

Q: # input compound: "COc1ccc(NC(=O)CCCCCCCSc2nnc(Cc3nn(C)c(=O)c4ccccc34)n2C)cc1" ; wanted: its IC50
Ans: 204

Q: // IC50 lookup, key: "COc1ccc(NC(=O)CCCCCCCSc2nnc(Cc3nn(C)c(=O)c4ccccc34)n2C)c(OC)c1"
Ans: 162

Q: Entry "Cn1c(Cc2nn(C)c(=O)c3ccccc23)nnc1SCCCCCCCCCCC(=O)Nc1ccc(Cl)cc1Cl" has what IC50?
Ans: 159

Q: Which IC50 value is on record for "Cn1c(Cc2nn(C)c(=O)c3ccccc23)nnc1SCCCCCCCC(=O)Nc1ccc(F)cc1F" ?
Ans: 76

Q: Looking for the measured IC50 of "Cn1c(Cc2nn(C)c(=O)c3ccccc23)nnc1SCCCCCCCC(=O)Nc1ccc(Cl)cc1Cl" , can you help?
Ans: 160

Q: Can you look up the measured IC50 of "Cn1c(Cc2nn(C)c(=O)c3ccccc23)nnc1SCCCCCCCC(=O)Nc1ccc(Br)cc1Br" for me?
Ans: 83

Q: Which IC50 is listed for "Cc1ccc(NC(=O)CCCCCCCSc2nnc(Cc3nn(C)c(=O)c4ccccc34)n2C)c(Cl)c1" ?
Ans: 69

====

I'd be grateful if you could share measured IC50 for these entries.
- assay: Inhibition of recombinant human IL2R/IL2-induced mouse 32D-beta cell proliferation preincubated for 30 mins with protein followed by cell addition measured after 2.5 days by Alamar blue reduction assay
- condition.label: Homo sapiens; read-out: IC50
Record the result as number plus unit.

Q: Looking for the measured IC50 of "Cn1c(Cc2nn(C)c(=O)c3ccccc23)nnc1SCCCCCCCC(=O)NC12CC3CC(CC(C3)C1)C2" , can you help?
Ans: 1.8 µM

Q: Requested field: IC50. Item: "Cn1c(Cc2nn(C)c(=O)c3ccccc23)nnc1SCCCCCCCC(=O)Nc1cccc2ccccc12"
Ans: 1.9 µM

Q: Recorded IC50 for "Cn1c(Cc2nn(C)c(=O)c3ccccc23)nnc1SCCCCCCCC(=O)Nc1ccc(O)cc1O" , please?
Ans: 21 µM

Q: Sample "Cn1c(Cc2nn(C)c(=O)c3ccccc23)nnc1SCCCCCCCC(=O)Nc1ccc(Br)cc1Br" — what was its IC50?
Ans: 1.3 µM

Q: Request the reported IC50 associated with "COc1ccc(NC(=O)CCCCCCCSc2nnc(Cc3nn(C)c(=O)c4ccccc34)n2C)cc1"
Ans: 3.2 µM

Q: Entry "Cn1c(Cc2nn(C)c(=O)c3ccccc23)nnc1SCCCCCC(=O)Nc1ccc(Cl)cc1Cl" has what IC50?
Ans: 9.8 µM

Q: Look up IC50 for this compound: "Cn1c(Cc2nn(C)c(=O)c3ccccc23)nnc1SCCCC(=O)Nc1ccc(Cl)cc1Cl"
Ans: 11.2 µM

Q: Bench note: what IC50 did "Cn1c(Cc2nn(C)c(=O)c3ccccc23)nnc1SCCCCCCCCCC(=O)Nc1ccc(Cl)cc1Cl" show?
Ans: 1.6 µM

Q: Bench note: what IC50 did "CC(C)Oc1ccc(NC(=O)CCCCCCCSc2nnc(Cc3nn(C)c(=O)c4ccccc34)n2C)cc1" show?
Ans: 0.6 µM

Q: // query IC50 value for entry "CCCCCCCCCCSc1nnc(Cc2nn(C)c(=O)c3ccccc23)n1C"
Ans: 10 µM

Q: Record request: IC50 value, item "Cc1ccc(NC(=O)CCCCCCCSc2nnc(Cc3nn(C)c(=O)c4ccccc34)n2C)c(Cl)c1"
Ans: 1.7 µM

Q: What value of measured IC50 is listed for "COc1ccc(NC(=O)CCCCCCCSc2nnc(Cc3nn(C)c(=O)c4ccccc34)n2C)c(OC)c1" ?
Ans: 0.9 µM

Q: Record request: IC50 value, item "Cn1c(Cc2nn(C)c(=O)c3ccccc23)nnc1SCCCCCCCC(=O)Nc1ccc(N=[N+]=[N-])cc1"
Ans: 1.1 µM

Q: Item under review: "CN(C(=O)CCCCCCCSc1nnc(Cc2nn(C)c(=O)c3ccccc23)n1C)c1ccc(Cl)cc1Cl" . Reported IC50?
Ans: 8.4 µM

Q: Recorded IC50 of "Cn1c(Cc2nn(C)c(=O)c3ccccc23)nnc1SCCCCCCCC(=O)Nc1ccc(I)cc1" , please.
Ans: 0.8 µM

Q: I would be grateful if you could share the reported IC50 for "Cn1c(Cc2nn(C)c(=O)c3ccccc23)nnc1SCCCCCCCCCCC(=O)NC12CC3CC(CC(C3)C1)C2" .
Ans: 4.9 µM

Q: Dear colleague, I am looking for the recorded IC50 of the following compound: "Cn1c(Cc2nn(C)c(=O)c3ccccc23)nnc1SCc1cn(C23CC4CC(CC(C4)C2)C3)nn1"
Ans: 30 µM

Q: Data request, read-out IC50, for "Cn1c(Cc2nn(C)c(=O)c3ccccc23)nnc1SCCCCCCCCCCC(=O)Nc1cccc2ccccc12"
Ans: 8.5 µM

Q: Tell me the measured IC50 of "Cn1c(Cc2nn(C)c(=O)c3ccccc23)nnc1SCCCCCCCC(=O)Nc1ccccc1O" , please.
Ans: 23 µM

Q: Need IC50 of "CC(C)COc1ccc(NC(=O)CCCCCCCSc2nnc(Cc3nn(C)c(=O)c4ccccc34)n2C)cc1" , thanks.
Ans: 3 µM
